test system: Escherichia coli TOP10; experiment: shrunken log2 fold change of peptide-encoding DNA abundance (4.5 h post-induction vs induction); higher = less antimicrobial activity (less host growth inhibition); conditions: time post-induction: 4.5 h; library: site-saturation at positions 5, 18, 19, 20;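 also: peptides expressed intracellularly from a pBAD plasmid library in pooled LB shake-flask culture, induced with 0.3% L-arabinose, DNA abundance read by NGS, three biological replicates, DESeq2 with apeglm shrinkage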
In this scheme, each record receives a class according to its shrunken log2 fold change; the ranges are bin 0 = under -0.06, bin 1 = from -0.06 up to 0.05, bin 2 = 0.05 and over

Worked examples follow.
- sequence_string: "RRIRWRPPRLPRPRPRPKNRPRP"
  assigned_label: "bin 1"
- sequence_string: "RRIRLRPPRLPRPRPRPEGVPRP"
  assigned_label: "bin 2"
- sequence_string: "RRIRTRPPRLPRPRPRPYLPPRP"
  assigned_label: "bin 0"
- sequence_string: "RRIRDRPPRLPRPRPRPFHPPRP"
  assigned_label: "bin 0"
- sequence_string: "RRIRVRPPRLPRPRPRPGKPPRP"
  assigned_label: "bin 1"
- sequence_string: "RRIRLRPPRLPRPRPRPMYYPRP"
  assigned_label: "bin 1"
- sequence_string: "RRIRCRPPRLPRPRPRPAYGPRP"
  assigned_label: "bin 2"
- sequence_string: "RRIRRRPPRLPRPRPRPGNIPRP"
  assigned_label: "bin 0"

Prompt line: For the record `RRIRQRPPRLPRPRPRPNMQPRP` , report the class its shrunken log2 fold change corresponds to.
Response line: bin 0

Prompt line: For the record `RRIRGRPPRLPRPRPRPCQLPRP` , report the class its shrunken log2 fold change corresponds to.
Response line: bin 0
